Biological target: Opioid receptors; mu & delta (Homo sapiens) (UniProt P41143+P35372)
Sequence (P35372 whole entry, looked up): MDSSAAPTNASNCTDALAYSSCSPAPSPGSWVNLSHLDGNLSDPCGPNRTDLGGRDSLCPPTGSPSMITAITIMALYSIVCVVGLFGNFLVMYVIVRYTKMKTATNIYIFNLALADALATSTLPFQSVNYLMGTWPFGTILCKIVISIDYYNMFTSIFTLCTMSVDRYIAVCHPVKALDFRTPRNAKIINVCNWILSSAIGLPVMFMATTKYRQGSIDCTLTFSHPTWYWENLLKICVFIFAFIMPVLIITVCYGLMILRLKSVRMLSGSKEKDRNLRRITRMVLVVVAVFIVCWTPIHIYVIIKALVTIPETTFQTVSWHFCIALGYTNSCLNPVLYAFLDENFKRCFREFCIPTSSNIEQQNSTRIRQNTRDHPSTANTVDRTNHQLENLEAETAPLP
Sequence (P41143 whole entry, looked up): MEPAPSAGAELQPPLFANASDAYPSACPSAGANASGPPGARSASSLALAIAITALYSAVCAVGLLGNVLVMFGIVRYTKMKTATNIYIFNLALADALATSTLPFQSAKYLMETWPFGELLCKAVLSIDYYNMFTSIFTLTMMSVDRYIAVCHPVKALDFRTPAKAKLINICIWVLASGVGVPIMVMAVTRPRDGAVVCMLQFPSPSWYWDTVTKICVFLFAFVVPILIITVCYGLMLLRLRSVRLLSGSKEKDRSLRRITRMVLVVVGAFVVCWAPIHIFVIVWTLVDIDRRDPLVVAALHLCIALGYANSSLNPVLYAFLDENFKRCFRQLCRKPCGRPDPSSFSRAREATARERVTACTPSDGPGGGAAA
Assay: Selectivity for human cloned delta opioid receptor over mu opioid receptor
Assay type: protein assay
REPORTED ENDPOINT: Ratio Ke

| TEST SMILES | NUMERIC RESULT |
| --- | --- |
| C[C@H]1CN(CCOc2ccccc2)[C@@H]2C[C@@H](NC(=O)C(C)(C)c3ccccc3)C[C@@]1(c1cccc(O)c1)C2 | 13 |
| C[C@H]1CN(CCCc2ccccc2)[C@@H]2C[C@@H](NC(=O)C3(c4ccsc4)CCCC3)C[C@@]1(c1cccc(O)c1)C2 | 8.8 |
| C[C@H]1CN(CCCc2ccccc2)[C@@H]2C[C@@H](NC(=O)C3(c4ccc5ccccc5c4)CCCC3)C[C@@]1(c1cccc(O)c1)C2 | 47 |
| C[C@H]1CN(CCCc2ccccc2)[C@@H]2C[C@@H](NC(=O)C3(c4cccc5ccccc45)CCCC3)C[C@@]1(c1cccc(O)c1)C2 | 19 |
